Ref: PubChem BioAssay AID623911

Biological target: G protein-activated inward rectifier potassium channel 2 (Homo sapiens) + G protein-activated inward rectifier potassium channel 1 (Homo sapiens) (UniProt P48051+P48549)
Sequence (P48051 whole entry, looked up): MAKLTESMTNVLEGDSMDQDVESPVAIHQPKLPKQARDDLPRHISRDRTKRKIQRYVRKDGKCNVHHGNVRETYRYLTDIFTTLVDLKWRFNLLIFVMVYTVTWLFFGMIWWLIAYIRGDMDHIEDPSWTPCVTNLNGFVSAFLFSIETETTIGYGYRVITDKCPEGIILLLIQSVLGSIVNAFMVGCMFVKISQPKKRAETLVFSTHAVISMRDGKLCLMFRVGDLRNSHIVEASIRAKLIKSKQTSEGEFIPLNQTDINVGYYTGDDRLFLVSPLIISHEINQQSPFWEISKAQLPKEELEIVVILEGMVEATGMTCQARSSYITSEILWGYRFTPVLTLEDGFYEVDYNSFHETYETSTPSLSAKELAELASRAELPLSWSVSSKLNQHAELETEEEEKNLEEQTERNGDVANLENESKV
Sequence (P48549 whole entry, looked up): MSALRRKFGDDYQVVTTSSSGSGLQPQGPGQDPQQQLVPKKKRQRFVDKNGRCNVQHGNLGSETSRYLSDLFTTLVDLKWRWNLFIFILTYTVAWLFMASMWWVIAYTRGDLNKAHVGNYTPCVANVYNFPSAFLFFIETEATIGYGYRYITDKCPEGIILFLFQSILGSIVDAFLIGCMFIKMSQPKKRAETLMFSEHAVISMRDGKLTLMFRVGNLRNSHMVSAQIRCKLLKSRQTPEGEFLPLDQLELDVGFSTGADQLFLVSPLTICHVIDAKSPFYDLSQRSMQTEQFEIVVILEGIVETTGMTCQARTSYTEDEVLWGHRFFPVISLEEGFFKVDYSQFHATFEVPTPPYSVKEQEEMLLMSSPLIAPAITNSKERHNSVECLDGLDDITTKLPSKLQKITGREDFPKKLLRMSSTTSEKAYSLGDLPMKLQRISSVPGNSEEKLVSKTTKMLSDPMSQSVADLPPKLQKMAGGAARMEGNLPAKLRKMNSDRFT
Test: GIRK1/2 thallium flux modulators, retest, confirmation, cell-based, HEK293 rmGlu8/hGIRK1/2, FluoZin-2 (AID 623911)
Conditions: HEK293 rmGlu8/hGIRK1/2, thallium flux FluoZin-2; actives lie on both sides; glutamate co-added at its EC20 level
In all, about 2,100 compounds went through this assay and about 770 (37%) were called active.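 The calls were made as follows: active = by-eye trace score of 1 for enhancers or -1 for inhibitors, so actives lie on both sides (some results past the limit were not filed as active); inactive = score 0, or 3 fluorescent, or 4 baseline rise.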 This is one part of the list.
# output must be one of yes for active, no for inactive

Exercise: Identify the outcome logged in this assay for the compound shown: COC(=O)c1c(NC(=S)NC(=O)c2ccco2)sc2c1CCCC2
Key: no

Exercise: Identify the outcome logged in this assay for the compound shown: CC1CCc2c(sc(NS(=O)(=O)c3ccccc3)c2C(=O)OC(C)C)C1 (stereo unspecified)
Key: no
